biological target: human P2X7 receptor (Homo sapiens, UniProt Q99572, R270H/Y155H); experiment: Evaluation of human P2X7 receptor inhibitory activity (Yo-Pro uptake, BzATP stimulation, FLIPR TETRA); type: cell-based; conditions: antagonistic activity for the human P2X7 receptor; read-out: IC50
READOUT: IC50

Take a look at these entries with their results.
COc1cn(Cc2cc(F)cc(Cl)c2)c(Nc2cc(-c3ncco3)ccc2C)nc1=O = 10 to 100 nM
CCc1ccc(OC)cc1Nc1nc(=O)c(F)cn1Cc1cc(F)c(F)c(F)c1 = < 10 nM
CCOc1cc(C)c(Nc2nc(=O)c(F)cn2Cc2ccc(F)c(F)c2)cc1F = 10 to 100 nM

Now take the following compound into account.
# input Find the measured IC50: item `CCc1ccccc1Nc1nc(=O)c(F)cn1Cc1cc(F)c(F)c(F)c1` , target or system human P2X7 receptor (Homo sapiens, UniProt Q99572, R270H/Y155H).
# output < 10 nM

----------
target: human P2X7 receptor (Homo sapiens, UniProt Q99572, R270H/Y155H); test: Evaluation of human P2X7 receptor inhibitory activity (Yo-Pro uptake, BzATP stimulation, FLIPR TETRA); type: cell-based; settings: antagonistic activity for the human P2X7 receptor; read-out: IC50
READOUT: IC50

Sample answers from the record:
Cc1nc2[nH]ccc2cc1Nc1nc(=O)c(F)cn1Cc1cc(F)cc(F)c1 [Compound I-1016] = 10 to 100 nM
COCc1cc(=O)nc(Nc2cc(OC)c(OC)cc2C)n1Cc1cc(F)c(F)c(F)c1 [Compound I-1147] = 10 to 100 nM
COc1cn(Cc2ccc(F)c(Cl)c2)c(Nc2ccc3ncsc3c2C)nc1=O [Compound I-0856] = 10 to 100 nM

# input Give its IC50 value. Item: COc1nc(C)c(Nc2nc(=O)c(F)cn2Cc2cc(F)c(F)c(F)c2)cc1C [Compound I-1000]
# output < 10 nM

# input I have this compound here, COc1cc(C)c(Nc2nc(=O)c(C(N)=O)cn2Cc2ccc(F)c(F)c2)cc1C [Compound I-1158] , and I need its recorded IC50.
# output < 10 nM

# input What value of IC50 has been recorded for this entry: CCOc1ccc(F)c(Nc2nc(=O)c(F)cn2Cc2cc(F)c(F)c(F)c2)c1 [Compound I-1215]
# output < 10 nM

# input Would you kindly share the measured IC50 for COc1ccc(Nc2nc(=O)c(F)cn2Cc2ccc(F)c(F)c2)c(C)c1 [Compound I-0841] ?
# output < 10 nM

# input I would be grateful if you could share the reported IC50 for COc1cn(Cc2ccc(F)c(F)c2)c(Nc2cc(Cl)cc3[nH]ccc23)nc1=O [Compound I-0820] .
# output 10 to 100 nM

----------
biological target: human P2X7 receptor (Homo sapiens, UniProt Q99572, R270H/Y155H); test: Evaluation of human P2X7 receptor inhibitory activity (Yo-Pro uptake, BzATP stimulation, FLIPR TETRA); type: cell-based; conditions: antagonistic activity for the human P2X7 receptor; read-out: IC50
READOUT: IC50

The examples below pair each entry with its known result.
COc1cn(Cc2cccc(F)c2)c(Nc2cccc(OC(F)F)c2C)nc1=O [Compound I-0641] = 10 to 100 nM
COc1cn(Cc2ccccc2)c(Nc2cc(OC(F)(F)F)ccc2C)nc1=O [Compound I-0691] = 100 to 500 nM
CCc1ccc(C)c(Nc2nc(=O)c(F)cn2Cc2cc(F)c(F)c(F)c2)c1 [Compound I-1226] = < 10 nM
COc1cn(Cc2cc(F)c(F)c(F)c2)c(Nc2cc3sc(C(F)F)nc3cc2C)nc1=O [Compound I-0934] = 10 to 100 nM
CCOc1ccc(Nc2nc(=O)c(OC)cn2Cc2cc(F)c(F)c(F)c2)c(C)c1 [Compound I-0725] = < 10 nM

# input # lookup: IC50 of COc1cn(Cc2ccc(F)c(F)c2)c(Nc2cc3sc(C)nc3cc2C)nc1=O [Compound I-0665]
# output < 10 nM

# input What does the data say about its IC50? Entry: Cc1nc2[nH]ccc2cc1Nc1nc(=O)c(F)cn1Cc1ccc(F)c(F)c1 [Compound I-1090]
# output 10 to 100 nM

# input Field request: IC50 | item: Cc1cc(F)c(-c2cccn(C)c2=O)cc1Nc1nc(=O)ccn1Cc1cc(F)c(F)c(F)c1 [Compound I-1137]
# output 10 to 100 nM

----------
target: human P2X7 receptor (Homo sapiens, UniProt Q99572, R270H/Y155H); experiment: Evaluation of human P2X7 receptor inhibitory activity (Yo-Pro uptake, BzATP stimulation, FLIPR TETRA); type: cell-based; details: antagonistic activity for the human P2X7 receptor; read-out: IC50
READOUT: IC50

Solved cases below.
COc1cc(C)c(Nc2cc(=O)c(OC)cn2Cc2ccc(F)c(Cl)c2)cc1C [Compound I-0954] = 0.01 to 0.1 µM
O=c1nc(Nc2cccc3c2CCN3)n(Cc2cc(F)cc(F)c2)cc1F [Compound I-1074] = 0.01 to 0.1 µM
COc1cc(C)c(Nc2nc(=O)c(C)c(C)n2Cc2cc(F)cc(F)c2)cc1OC [Compound I-1135] = 0.01 to 0.1 µM
COc1cn(Cc2ccc(F)c(F)c2)c(Nc2cc(-c3ccnn3C)ccc2C)nc1=O [Compound I-0783] = 0.01 to 0.1 µM
COc1ncccc1-c1ccc(C)c(Nc2nc(=O)c(OC)cn2Cc2cc(F)c(F)c(F)c2)c1 [Compound I-0832] = < 0.01 µM
COc1cn(Cc2ccc(F)c(F)c2)c(Nc2ccccc2C)nc1=O [Compound I-0685] = 0.01 to 0.1 µM
COc1cn(Cc2ccccc2)c(Nc2cc(-c3ccc(C)o3)ccc2C)nc1=O [Compound I-0658] = 0.01 to 0.1 µM

Please find the next compound below.
# input I would be grateful if you could share the reported IC50 for Cc1cc(Nc2nc(=O)c(F)cn2Cc2cc(F)cc(F)c2)c(Cl)cc1F [Compound I-1224] .
# output < 0.01 µM

----------
target: human P2X7 receptor (Homo sapiens, UniProt Q99572, R270H/Y155H); assay: Evaluation of human P2X7 receptor inhibitory activity (Yo-Pro uptake, BzATP stimulation, FLIPR TETRA); assay type: cell-based; conditions: 1321N1 cells stably expressing human P2X7 receptor; BzATP stimulation, Yo-Pro uptake; read-out: IC50 (antagonistic activity for the human P2X7 receptor), class symbol
In this section we review reported IC50 values for a set of molecules.

# input Give the measured IC50 of COc1cccc(Nc2nc(=O)c(OC)cn2Cc2cc(F)cc(F)c2)c1C [Compound I-0438] .
# output < 10 nM

# input For the molecule COc1cc(C)cc(Nc2nc(=O)c(OC)cn2Cc2ccc(F)c(Cl)c2)c1C [Compound I-0449] , what IC50 is on record?
# output < 10 nM

----------
biological target: human P2X7 receptor (Homo sapiens, UniProt Q99572, R270H/Y155H); assay: Evaluation of human P2X7 receptor inhibitory activity (Yo-Pro uptake, BzATP stimulation, FLIPR TETRA); assay type: cell-based; conditions: 1321N1 cells stably expressing human P2X7 receptor; BzATP stimulation, Yo-Pro uptake; read-out: IC50 (antagonistic activity for the human P2X7 receptor), class symbol
pIC50: −log10 of the molar value.
READOUT: pIC50

Reference set (5 entries):
COc1cn(Cc2ccccc2)c(Nc2ccc3[nH]ccc3c2C)nc1=O = > 8.00
Cc1c(Cl)cccc1Nc1nc(=O)c(C(F)(F)F)cn1Cc1ccccc1 = 6.30 to 7.00
COc1cn(Cc2cc(F)cc(Cl)c2)c(Nc2cccc3[nH]c(C)cc23)nc1=O = 7.00 to 8.00
COc1cn(Cc2ccc(F)c(Cl)c2)c(Nc2cc3[nH]ncc3cc2C)nc1=O = > 8.00
CCc1cc(OC)c(OC)cc1Nc1nc(=O)c(OC)cn1Cc1cccc(Cl)c1 = > 8.00

# input Sample `COc1cn(Cc2ccccc2)c(Nc2cc(C)c(OC(F)F)cc2C)nc1=O` — what was its pIC50?
# output > 8.00

# input Consider the compound `COc1cn(Cc2ccccc2)c(Nc2cccc3c(=O)[nH]ccc23)nc1=O` and give its measured pIC50.
# output 7.00 to 8.00

# input Looking for the measured pIC50 of `CCc1cc(OC)c(OC)cc1Nc1nc(=O)c(OC)cn1Cc1ccc(F)cc1` , can you help?
# output > 8.00

----------
target: human P2X7 receptor (Homo sapiens, UniProt Q99572, R270H/Y155H); assay: Evaluation of human P2X7 receptor inhibitory activity (Yo-Pro uptake, BzATP stimulation, FLIPR TETRA); type: cell-based; settings: antagonistic activity for the human P2X7 receptor; read-out: IC50
pIC50: −log10 of the molar value.
READOUT: pIC50

Worked cases, pIC50 given:
CCc1cc2c(cc1Nc1nc(=O)c(OC)cn1Cc1cc(F)cc(F)c1)OCO2 = 7.00 to 8.00
COc1cn(Cc2ccc(F)c(Cl)c2)c(Nc2cccc3c(=O)n(C)ccc23)nc1=O = 7.00 to 8.00
COc1cn(Cc2ccc(F)c(F)c2)c(Nc2cc(C)cc3[nH]ccc23)nc1=O = 7.00 to 8.00
COCc1cn(Cc2cc(F)c(F)c(F)c2)c(Nc2cc(OCCO)ccc2C)nc1=O = 7.00 to 8.00
COc1cc(F)c(Nc2nc(=O)c(C)cn2Cc2cc(F)c(F)c(F)c2)cc1OC = 7.00 to 8.00

# input Please report the recorded pIC50 for `COc1cn(Cc2cc(F)cc(Cl)c2)c(Nc2cc3sc(C)nc3cc2C)nc1=O` .
# output 7.00 to 8.00

# input Using the record for `COc1cn(Cc2ccccc2)c(Nc2ccc3ncsc3c2C)nc1=O` , report its pIC50.
# output 7.00 to 8.00

# input Data request, read-out pIC50, for `COc1cn(Cc2cc(F)c(F)c(F)c2)c(Nc2cc(-n3cccc3)ccc2C)nc1=O`
# output > 8.00

# input Given `COc1cc(C)cc(Nc2nc(=O)c(OC)cn2Cc2cc(F)c(F)c(F)c2)c1C` , state its recorded pIC50.
# output > 8.00

# input Which pIC50 is listed for `COc1ccc(Nc2nc(=O)c(F)cn2Cc2cc(F)c(F)c(F)c2)c(C)c1F` ?
# output > 8.00

# input Need pIC50 of `COc1cn(Cc2ccc(F)c(Cl)c2)c(Nc2cc(-c3cccn(C)c3=O)c(F)cc2C)nc1=O` , thanks.
# output 7.00 to 8.00

# input Can you look up the measured pIC50 of `CCc1cc(Br)ccc1Nc1nc(=O)c(OC)cn1Cc1cc(F)cc(F)c1` for me?
# output > 8.00

# input Dear colleague, I am looking for the recorded pIC50 of the following compound: `COc1cn(Cc2ccc(F)c(Cl)c2)c(Nc2cc(N3CCCC3)ccc2C)nc1=O`
# output 7.00 to 8.00

# input What does the record list as pIC50 for `COc1cn(Cc2cc(F)c(F)c(F)c2)c(Nc2cc(C)c(F)cc2C)nc1=O` ?
# output > 8.00

# input Which value of pIC50 has been reported for `COc1cc(Nc2nc(=O)c(F)cn2Cc2cc(F)cc(F)c2)c(C)cc1Cl` in the records?
# output > 8.00

# input Can you share its pIC50? I mean this compound: `COc1ccc(C)c(Nc2nc(=O)c(F)cn2Cc2ccc(F)c(F)c2)c1`
# output > 8.00

# input Reported pIC50, compound `COc1cn(Cc2ccc(F)c(Cl)c2)c(Nc2cc(OC(F)F)c(C)cc2C)nc1=O` : ____
# output > 8.00

# input # lookup: pIC50 of `COc1cn(Cc2cc(F)cc(F)c2)c(Nc2cc3c(cc2C)OC(F)(F)O3)nc1=O`
# output 6.30 to 7.00

# input Can you look up the measured pIC50 of Cc1ccc(N2CC3CCC2C3)cc1Nc1nc(=O)c(F)cn1Cc1cc(F)c(F)c(F)c1 (stereo not drawn) for me?
# output 7.00 to 8.00

# input Using the record for `Cc1cc2c(cc1Nc1nc(=O)c(CCO)cn1Cc1cc(F)c(F)c(F)c1)COC2` , report its pIC50.
# output 7.00 to 8.00

# input I am curious: what pIC50 value has been reported for `COc1cn(Cc2cc(F)cc(F)c2)c(Nc2cc(-n3cccc3)ccc2C)nc1=O` ?
# output 7.00 to 8.00

# input Name the reported pIC50 value associated with the compound `COc1cn(Cc2ccc(Cl)s2)c(Nc2cc(C)c(C)cc2C)nc1=O`
# output > 8.00

# input Entry under review: `COc1cn(Cc2ccccc2)c(Nc2cc(F)c(Cl)cc2C)nc1=O` . Reported pIC50?
# output 7.00 to 8.00
